Below: molecules with IC50 recorded for Non-receptor tyrosine-protein kinase TYK2 (Homo sapiens, UniProt P29597) in separate published works.

Record excerpt, results attached:
{"molecule": "CCCC1(n2cc(-c3nc(-c4cnn(C)c4)cc4nccn34)cn2)CN(S(=O)(=O)C(F)(F)F)C1", "IC50": "10 to 100 nM"}
{"molecule": "Cc1cc(Nc2ncc(C)c(N3CC(CC#N)(N4C[C@@H](C)N(C)[C@H](C)C4)C3)n2)sn1", "IC50": "< 10 nM"}
{"molecule": "CCC(CC)n1cc(-c2nc(-c3cnn(CCN4CC[C@H](OC)C4)c3)cn3nccc23)cn1", "IC50": "10 to 100 nM"}
{"molecule": "Cc1cc(Nc2ncc(C)c(N3CC(CC#N)(NC(=O)c4cccc(C(F)(F)F)c4)C3)n2)sn1", "IC50": "< 20 nM"}

Give a short answer stating reported IC50 for N#CCC(C1CC1)n1cc(-c2nc(-c3cnn(C4CCOCC4)c3)cc3nccn23)cn1 (centres unmarked) .
< 10 nM

Give a short answer stating reported IC50 for CCOC(=O)Cn1cc(Nc2ncc3ccn(C[C@@H](CC)C(C)C)c3n2)cn1 .
< 100 nM

Give a short answer stating reported IC50 for CN(c1ncccc1CNc1nc(-c2cc(F)c(O)cc2CC(F)(F)F)cc2[nH]nc(C(N)=O)c12)S(C)(=O)=O .
278 nM

Give a short answer stating reported IC50 for NC(=O)c1cnc(Nc2ccc3c(c2)NC[C@H](O)CO3)nc1NCCCO .
< 10 nM
